Tested on: Aerobactin synthetase IucA (Klebsiella pneumoniae, hypervirulent)
Experiment: IucA enzyme inhibition, biochemical, LOPAC library, absorbance readout (AID 1346212);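 note: 100% = no compound wells and 0% = no enzyme wells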
Conditions: IucA enzyme assay, absorbance (OD) readout; hits give low values; concentration not given here
Property Label: remaining activity (%)
Give just the number in %; leave the unit off.

Annotate the molecule CNC(=O)[C@H]1O[C@@H](n2cnc3c(N)ncnc32)C(O)[C@H]1O (stereo partly drawn) with its measured remaining activity.
129

Hello, please tell me recorded remaining activity for this one: Nc1c2c(nc3ccccc13)CCCC2O (stereo not drawn)
101

###

System: F380Y/beta1
Assay: modulators of BK channel variants, profiling panel, selectivity assay, cell-based, U2OS BacMam, thallium flux, beta subunits (AID 1259406);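 note: initial slope of Thallos dye fluorescence rise after thallium is added; log ratio against the mean of 0.3% DMSO vehicle wells on the same plate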
Conditions: at 30 µM
Activity calls are given as the source filed them.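 The calls were made as follows: active = thallium flux through the channel raised or lowered by more than 3 SD from vehicle-only wells, actives on both sides; inactive = the rest.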
Property Label: log fold change Tl+ flux

Molecule	Property Label	Reported Value
NC(=O)CS(=O)C(c1ccccc1)c1ccccc1 (centres undefined)	log fold change Tl+ flux	0.0487 (inactive)
C[C@]12CCC(=O)C[C@@H]1CC[C@@H]1[C@@H]2CC[C@@]2(C)[C@H]1CC[C@]2(C)O	log fold change Tl+ flux	-0.00468 (inactive)
O=C(O)C(Cl)Cl	log fold change Tl+ flux	-0.0051 (inactive)
CN(C)[C@@H]1C(=O)C(C(N)=O)=C(O)[C@@]2(O)C(=O)C3=C(O)c4c(O)cccc4[C@@](C)(O)[C@H]3[C@H](O)[C@@H]12	log fold change Tl+ flux	0.0522 (inactive)
COC(=O)N1CCN(C(=O)Cc2ccc(Cl)c(Cl)c2)C(CN2CCCC2)C1 (centres undefined)	log fold change Tl+ flux	0.0396 (inactive)
c1ccc(Cn2ccnc2)cc1	log fold change Tl+ flux	-0.0465 (inactive)
C[C@]12CC[C@H]3[C@@H](CCC4=CC(=O)CC[C@@H]43)[C@@H]1CC[C@@H]2O	log fold change Tl+ flux	0.000378 (inactive)
CC[C@@H]1C=CC=CC[C@H](C)[C@@H](O)[C@@H](C)C(=O)[C@H](C)[C@@H](O)[C@H](C)C(=O)[C@H](C)[C@@H](O)[C@H](C)C=CC(=O)O[C@H]2[C@@H](C)[C@@H](CC1)O[C@@]1(CC[C@@H](C)[C@@H](C[C@H](C)O)O1)[C@@H]2C	log fold change Tl+ flux	-0.604 (active)
C[C@]12CC(=CO)C(=O)C[C@@H]1CC[C@@H]1[C@@H]2CC[C@@]2(C)[C@H]1CC[C@]2(C)O	log fold change Tl+ flux	0.204 (active)
CN1C(=O)CN=C(c2ccccc2)c2cc([N+](=O)[O-])ccc21	log fold change Tl+ flux	-0.0526 (inactive)

Provide one value: measured log fold change Tl+ flux of "CC(C)[C@]12O[C@H]1[C@@H]1O[C@]13[C@]1(O[C@H]1C[C@H]1C4=C(CC[C@@]13C)C(=O)OC4)[C@@H]2O"
-0.0154 (inactive)

Consider the molecule Clc1ccc(COC(Cn2ccnc2)c2ccc(Cl)cc2Cl)c(Cl)c1 (centres undefined) . State its measured log fold change Tl+ flux.
-0.101 (inactive)

Fill in reported log fold change Tl+ flux for this entry: CC(C)N(CCC(C(N)=O)(c1ccccc1)c1ccccn1)C(C)C (centres undefined)
0.0372 (inactive)

Dear colleague, please send me the reported log fold change Tl+ flux for "C=C1C[C@@H]2[C@H](CC[C@]3(C)C(=O)CC[C@@H]23)[C@@]2(C)C=CC(=O)C=C12" when you can.
0.059 (inactive)

For the molecule "Cc1ccc(S(=O)(=O)N2CN3CCN(C3)C2)cc1" , report log fold change Tl+ flux.
-0.0265 (inactive)

State, in one line, measured log fold change Tl+ flux of "CS(=O)(=O)Nc1ccc(Cc2noc(-c3ccc4[nH]cc(CCN)c4c3)n2)cc1"
0.0172 (inactive)

Provide one value: measured log fold change Tl+ flux of "CN1C(=O)CN=C(c2ccccc2)c2cc(Cl)ccc21"
-0.0264 (inactive)

Give recorded log fold change Tl+ flux. "CCN(CC)CCOC(=O)C(O)(c1ccccc1)c1ccccc1"
-0.00425 (inactive)

Supply log fold change Tl+ flux value. Item: CNCC(O)c1ccc(O)cc1 (centres undefined)
-4.2e-05 (inactive)
